# test.system: MEK4 (Homo sapiens)
# Sequence (P45985 1-399): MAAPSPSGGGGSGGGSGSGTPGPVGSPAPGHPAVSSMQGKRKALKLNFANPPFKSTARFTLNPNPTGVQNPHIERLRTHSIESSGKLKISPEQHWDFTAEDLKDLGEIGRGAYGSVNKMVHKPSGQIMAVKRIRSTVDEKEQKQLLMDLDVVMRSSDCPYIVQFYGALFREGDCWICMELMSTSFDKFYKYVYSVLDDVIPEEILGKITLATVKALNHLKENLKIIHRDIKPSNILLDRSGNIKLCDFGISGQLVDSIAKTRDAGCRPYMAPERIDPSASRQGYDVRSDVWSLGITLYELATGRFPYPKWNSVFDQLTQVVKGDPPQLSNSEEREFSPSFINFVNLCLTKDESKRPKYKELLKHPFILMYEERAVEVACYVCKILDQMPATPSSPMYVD
test.readout: pIC50
Keep in mind that pIC50 stands for -log10 of concentration in molar terms.

IN: Dear colleague, I am looking for the recorded pIC50 of the following molecule: O=C(c1c(F)cccc1F)c1c[nH]c2ncc(Cl)cc12 [compound 3a]
OUT: 5.16
